Header: IC50 / Flap endonuclease 1 (Homo sapiens) / multiple publications
Kindly apply the following: true (1) if IC50 is less than 2 µM, false (0) in every other case.

# compound, discreteLabel
records = [
    ("O=C(NCc1ccc(O)c(O)c1)C1CCCC1", "false (0)"),
    ("O=C(CCc1ccccc1)NCc1ccc(O)c(O)c1", "false (0)"),
    ("Cc1ccccc1C(=O)CC(=O)C(=O)O", "false (0)"),
    ("CC(=O)Nc1cccc2c(=O)n(O)c(=O)[nH]c12", "true (1)"),
    ("O=C(Cc1ccc(Cl)cc1)NCc1ccc(O)c(O)c1", "false (0)"),
    ("O=C1N(Cc2ccc(Cl)cc2)CCN1Cc1ccc(O)c(O)c1", "false (0)"),
    ("O=c1[nH]c2cc(N3CCCC3)ccc2c(=O)n1O", "true (1)"),
    ("Cc1c(Cn2c(=O)c(O)c(C(=O)O)c3sccc32)cnn1C", "true (1)"),
    ("O=c1[nH]c2cc(Nc3ccccc3)ccc2c(=O)n1O", "true (1)"),
    ("O=C(Cc1ccc(O)c(O)c1)NCc1ccc(Cl)cc1Cl", "false (0)"),
    ("O=C(CNc1ccccc1)NCc1ccc(O)c(O)c1", "false (0)"),
    ("CC(C)CCNC(=O)c1nc(C2CCCCN2)[nH]c(=O)c1O (stereo not drawn)", "false (0)"),
    ("O=C(Nc1ccc(F)cc1)c1nc(-c2cccs2)[nH]c(=O)c1O", "false (0)"),
    ("O=C(Cc1ccc(Cl)cc1Cl)NCc1ccc(O)c(O)c1", "false (0)"),
    ("O=C(O)C(=O)CC(=O)c1cccc(Cl)c1", "false (0)"),
    ("Cc1ccc(-c2coc3c(=O)n(O)c(=O)[nH]c23)cc1", "true (1)"),
    ("O=c1[nH]cc(-c2cccc(-n3cccn3)c2)cc1O", "false (0)"),
    ("O=C(O)C(=O)CC(=O)c1cccc(Oc2ccccc2)c1", "false (0)"),
    ("Cn1ncc2ccc(-c3c[nH]c(=O)c(O)c3)cc21", "false (0)"),
    ("O=C(NCc1ccc(O)c(O)c1)C1CCN(Cc2ccc(F)cc2)CC1", "false (0)"),
    ("Cn1c(=O)n(O)c(=O)c2ccccc21", "false (0)"),
    ("O=C(Nc1cccnc1)c1nc(-c2cccs2)[nH]c(=O)c1O", "false (0)"),
    ("O=C(O)C(=O)CC(=O)c1cccs1", "false (0)"),
    ("O=C(COc1ccccc1)NCc1ccc(O)c(O)c1", "false (0)"),
    ("O=C1c2cccc3c(Cl)ccc(c23)C(=O)N1O", "true (1)"),
    ("COc1ccc(-c2cccc(C(=O)CC(=O)C(=O)O)c2)cc1", "true (1)"),
    ("O=S(=O)(Cc1ccc(Cl)cc1Cl)NCc1ccc(O)c(O)c1", "false (0)"),
]

====

Header: pIC50 / Flap endonuclease 1 (Homo sapiens, UniProt P39748) / multiple publications
pIC50: −log10 of the molar value.

# lineNotation, sign, pIC50
rows = [
    ("COc1ccc(Cn2nnnc2C(=O)CC(=O)c2ccc(-c3ccccc3)cc2)cc1", "=", 4.46),
    ("O=c1[nH]c2ccccc2c(=O)n1O", "=", 6.52),
    ("O=C(O)C(=O)CC(=O)c1ccco1", "=", 4.19),
    ("COC(=O)c1nc(-c2ccccc2)[nH]c(=O)c1O", "=", 4.27),
    ("CC(C)CCNC(=O)c1nc(-c2ccc(CN(C)C)cc2)[nH]c(=O)c1O", "=", 4.15),
    ("Cc1cccc(NCC(=O)N/N=C/c2cc(Br)c(O)c(O)c2Br)c1", "<", 4.00),
]
